Test system: Vero E6
Experiment: cell viability relative to DMSO; higher = less toxic
Conditions: 72 h; 1000 nM
# key: entry, value: cell viability
Numeric only. Scale: %

Here are 2 compounds together with their reported answers.
compound: CCOC(=O)NNc1ccc(N(CC)CC(C)O)nn1 (stereo not given) [cadralazine]
target.system: Vero E6
measured.value: 100

compound: CC(=O)c1ccc(S(=O)(=O)NC(=O)NC2CCCCC2)cc1 [acetohexamide]
target.system: Vero E6
measured.value: 98.9

Incoming: Item CO[C@H]1CC[C@H](N2C(=O)CNc3ncc(-c4ccc(C(C)(C)O)nc4)nc32)CC1 [CC-223] with Vero E6 - cell viability?
Outgoing: 92.5

Incoming: State its cell viability on Vero E6: Cc1cc(C)cc(NC(=O)Nc2ccc(OS(N)(=O)=O)cc2)c1 [S4]
Outgoing: 103

Incoming: Record Oc1ccc(-c2c(-c3ccccc3)nn3c(C(F)(F)F)cc(C(F)(F)F)nc23)cc1 [PHTPP] : what is its cell viability with Vero E6?
Outgoing: 105
